- Test system: CN0375-F725-PDC KRAS spheroid viability;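 further: spheroids exposed to agents for 7 days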
- method summary: Anticancer human tumor CN0375-F725-PDC patient-derived colon carcinoma cell line growth inhibition [KRAS2]; active means viability on the fitted dose curve at most 10% of control; inactive means the rest
- particulars: second compound 10 µM; first compound 0.1 µM; spheroids with HUVEC and MSC
Possible outcomes: active, inactive

compound	study system	class assignment
CCN1CCN(Cc2ccc(Nc3ncc(F)c(-c4cc(F)c5nc(C)n(C(C)C)c5c4)n3)nc2)CC1 + CC1OCC2(CCN(c3cnc(Sc4ccnc(N)c4Cl)c(N)n3)CC2)C1N	CN0375-F725-PDC KRAS spheroid viability	inactive
CCNC(=O)CC1N=C(c2ccc(Cl)cc2)c2cc(OC)ccc2-n2c(C)nnc21 (stereo not given) + COc1cc2nc(C)nc(NC(C)c3cc(N)cc(C(F)(F)F)c3)c2cc1OC1CCOC1	CN0375-F725-PDC KRAS spheroid viability	active
O=C(c1cc(Cc2n[nH]c(=O)c3ccccc23)ccc1F)N1CCN(C(=O)C2CC2)CC1 + C=CC(=O)N1CCN(c2nc(=O)n(-c3c(C)ccnc3C(C)C)c3nc(-c4c(O)cccc4F)c(F)cc23)C(C)C1	CN0375-F725-PDC KRAS spheroid viability	inactive
CC(C)n1nc(-c2ccc3oc(N)nc3c2)c2c(N)ncnc21 + CNCc1ccccc1-c1csc(C(C)Nc2nc(C)nc3cc(OC)c(OC)cc23)c1	CN0375-F725-PDC KRAS spheroid viability	active
CC1(C)CCC(CN2CCN(c3ccc(C(=O)NS(=O)(=O)c4ccc(NCC5CCOCC5)c([N+](=O)[O-])c4)c(Oc4cnc5[nH]ccc5c4)c3)CC2)=C(c2ccc(Cl)cc2)C1 + CC1OCC2(CCN(c3cnc(Sc4ccnc(N)c4Cl)c(N)n3)CC2)C1N	CN0375-F725-PDC KRAS spheroid viability	inactive
